- TEST SYSTEM: BIR2 domain of XIAP (Artificial Sequence)
- MEASUREMENT PROTOCOL: DELFIA displacement assay on XIAP BIR2
ENDPOINT NAME: IC50
Phrase the answer as number then unit, nothing more needed.

Request: What IC50 value was documented for this substance, NMe-Ala-pSFB-Dap-Pro-Phe-NH2 (peptide) ?
Response: 2220 nM
